# TEST NAME: counter assay for TAg ATPase ADP read-out – biochemical, ADP-Hunter, fluorescence, counter-screen (AID 2501);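 also: purified T antigen ATPase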
# ASSAY CONDITIONS: series mostly up to 100 µM
Out of some 2,200 compounds screened, about 1,200 (55%) were called active. So high a share suggests a set chosen from earlier hits. Some of the results follow.

{"columns": ["COMPOUND", "IC50"],
 "data": [
  ["CC(=O)O[C@H]1C[C@@]2(C)[C@@H](C[C@@H](O)[C@H]3[C@@]4(C)CC[C@@H](O)[C@@H](C)C4CC[C@@]32C)/C1=C(\\CCC=C(C)C)C(=O)O (some centres undefined)", "inactive"],
  ["CCOc1ccc(NC(=O)c2nnn(CC(=O)Nc3ccccc3OC)c2N)cc1", "inactive"],
  ["COc1cc([C@@H]2Oc3cc(C4Oc5cc(O)cc(O)c5C(=O)[C@H]4O)ccc3O[C@H]2CO)ccc1O (some centres undefined)", "31.4 µM (active)"],
  ["Cc1cc([N+](=O)[O-])nn1CC(=O)NCc1ccccc1", "inactive"],
  ["COc1cc(-c2cc(=O)c3ccccc3o2)ccc1O", "3.14 µM (active)"],
  ["CSc1nnc(-c2ccc(O)cc2)n1C", "27.5 µM (active)"],
  ["O=C(N/N=C/c1ccc(O)c(O)c1)c1ccc(CSc2cccc3cccnc23)cc1", "29 µM (active)"],
  ["O=C(CSc1cccc2cccnc12)N/N=C/c1ccc(O)cc1", "4.35 µM (active)"],
  ["CC1(OC(=O)CCc2ccccc2)C(=O)C=C2C=C(c3ccc(C#N)cc3)N(Cc3ccco3)C=C2C1=O (centres undefined)", "inactive"],
  ["CCOC(=O)c1[nH]c2ccccc2c1NC(=S)Nc1cccc(C)c1C", "29 µM (active)"],
  ["COc1cc(/C=N/NC(=O)C(C)n2nnc3ccccc32)ccc1O (centres undefined)", "3.07 µM (active)"],
  ["Oc1ccc(C=Nc2ccc(N3CCOCC3)cc2)c(O)c1", "2.33 µM (active)"],
  ["CCOc1cc(/C=N/NC(=O)CSc2cccc3cccnc23)ccc1O", "3.48 µM (active)"],
  ["N#CC1=C(S)N(c2ccccc2)C(c2ccc(-c3ccc(Cl)c(Cl)c3)o2)NC1=O (centres undefined)", "inactive"],
  ["COc1cc(OC)c2c(c1O)OC(c1ccccc1)CC2=O (centres undefined)", "inactive"],
  ["Nc1ccc(-n2nncc2-c2ccc(Cl)cc2)cc1", "inactive"],
  ["COc1cc(/C=N/NC(=O)c2ccncc2)ccc1O", "3.56 µM (active)"],
  ["COC(=O)c1[nH]c2ccc(Br)cc2c1NC(=O)Oc1ccccc1", "inactive"],
  ["O=c1[nH]c(/C=C\\c2ccc(O)c(O)c2)nc(O)c1[N+](=O)[O-]", "5.5 µM (active)"],
  ["O=C(CCc1ccc(O)c(O)c1)N/N=C/c1cc2c(cc1[N+](=O)[O-])OCO2", "inactive"],
  ["O=C1CC(c2ccc(O)c(O)c2)Oc2c1ccc(O)c2O (centres undefined)", "13.6 µM (active)"],
  ["O=C(COc1cccc2cccnc12)N/N=C/c1ccc(O)cc1", "73.5 µM (active)"],
  ["Cc1cccc(C)c1NC(=S)Nc1ccccc1C(=O)NCc1ccco1", "inactive"],
  ["Cc1cc2c(Nc3ccc(O)cc3)ncnc2s1", "3.61 µM (active)"],
  ["Cc1cc(-c2nnc(SCc3ccccn3)o2)no1", "inactive"],
  ["COc1cc(-c2cc(=O)c3c(O)c(OC)c(OC)c(O)c3o2)ccc1O", "inactive"],
  ["CC(=O)N(c1ccc2oc(=O)sc2c1)S(=O)(=O)c1ccccc1", "62.1 µM (active)"],
  ["CCOC(=O)Cn1cc(C#N)c(=O)[nH]c1=O", "inactive"],
  ["Cc1cccc(N2CCN(C(=O)Cn3sc4nc(C)cc(C)c4c3=O)CC2C)c1 (centres undefined)", "inactive"],
  ["COc1cc(/C=N\\Nc2cc(=O)n(C)c(=O)n2C)ccc1O", "4.97 µM (active)"],
  ["COc1cc(C(=O)N/N=C(\\C)Cn2nc([N+](=O)[O-])cc2C)ccc1O", "16.1 µM (active)"],
  ["COCc1cc(=O)n2[nH]c(-c3ccsc3-n3c(C)ccc3C)cc2n1", "inactive"],
  ["COc1ccc(Cc2nc3ccccc3n2CC(=O)N/N=C/c2ccc(O)cc2)cc1OC", "4.33 µM (active)"],
  ["COc1ccccc1C(C)NS(=O)(=O)c1cccs1 (centres undefined)", "inactive"],
  ["C=C(C)C(=O)O[C@H]1C/C(C)=C\\C(=O)/C=C(\\C)[C@H](O)[C@@H]2OC(=O)C(=C)[C@@H]21", "inactive"],
  ["CCc1cc2c(Nc3ccc(O)cc3)nc(C)nc2s1", "4.69 µM (active)"],
  ["CCOc1c(Br)cc(CNc2ccc(N3CCN(C(C)=O)CC3)cc2)cc1OC", "7.66 µM (active)"],
  ["COc1cc(/C=N/Nc2nc(=O)[nH]nc2C)ccc1O", "6.46 µM (active)"],
  ["COc1cccc(C=Nc2ccc(N3CCOCC3)cc2)c1O", "5.29 µM (active)"],
  ["O=C1c2c(O)cc(O)cc2O[C@H](c2ccc(O)c(O)c2)[C@H]1O", "5.9 µM (active)"],
  ["Oc1ccc(N=Cc2cc(Br)c(N3CCOCC3)o2)cc1", "8.18 µM (active)"],
  ["C[N+]1(CCCCSc2ccc(O)cc2)CCCCC1", "4.59 µM (active)"],
  ["O=C(NCCO)Nc1ccc2nc(-c3ccco3)c(-c3ccco3)nc2c1", "inactive"],
  ["CCn1cc(CN2CCC(n3nccc3NC(=O)c3ccccc3OC)CC2)cn1", "inactive"]
]}

// data source = PubChem BioAssay AID2501
